The reported numbers originate from the domain aggregation screens of Martell et al. (2025).

- Protocol: soluble fraction after stress (log2 fold change); higher = more stays soluble; pooled small domains, quantitative proteomics;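 note: 20 min heating vs room temperature control held 20 min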
- Measurement setup: stress: 75 degC
So basically: soluble fraction (log2) at -0.6 or higher? That is 1. Lower than -0.6? That is 0.

{"columns": ["Monomer sequence", "Class name"],
 "data": [
  ["HMQGTTTELLIQKSALYEELNDPEKALNAMFDAFEMDSLNVNVLHRIVSLLLDKEENEKAILYNQLIIDH", 1],
  ["HMDTVIAEVTASILNLRRSAGTSSDIIGKLNKGEKVSIIGGSGNWKNVRTSGGITGWVYHEYLSTY", 0],
  ["HMHHDDHNQQEEIKEKLLAMVADGERHHVTEVRQLDEDWDMVTKVMKELMDEEQLLMDGSYLILSA", 1],
  ["HMRVDLATEVHSVLRRMMSRPPTLQEIRADLDGEEPGRVHEALDALRAAFRGGRGPKNPYESLKRSLRRG", 0],
  ["HMDNLSESQIKAYSSILSRTHEISDLAENKDYLAFSLWIANILRDPQSVREETAKRVFSALHTNTDFK", 0],
  ["HMAPKVTLNETETAIFEKMQQEKQLLLSELRTHFDISNKLWDTSIKTLTKNQLLTVSKEADLLWIKL", 0],
  ["HMHTSEDLEKLLTRYFQSHESINRQQFEQLSGFTRTTASRRLKALVEAGKLKNIGLHHFPVYKPTEGNF", 1],
  ["HMTLTPEQQAARRSEIVDIALRLIAENGFQKTSMREIADLAKMGKSSLYDFFKTKDEIAVYAMEKK", 0],
  ["HMVPISGADFEKLSDYILQKAGAGSIQVKELLAGLKGMHEKNLWKAIDYLLAEEKIRIDKGGNISVK", 1],
  ["HMADYYETLGVERTASEEDIKRAYRKMSRKYHPDIAGPEFEEKFKEVNTAYEVLSDPDKRRMYDAGVDPND", 1],
  ["HMRISMRDQVYEIIKNRILSREYSLGEPINIVHLSKELGISNTPIREALSQLETERLITINSNQKYHVT", 1],
  ["HMKPKDILLPNFTNLTLDEAKAKAEEVKLNLNVSEEKYDVQIEEGKIISQDPKYQPNYTVKEGSTVNVVVS", 1],
  ["HMNDQLIYSDFIRQVQDGQITEVTISGLNIAGTRSDGSVFNTLRPYIEDPKLIDDLLSHNVRIQGAE", 1],
  ["HMAKMPSIIIMKDGVIRTSELEQIERDENWLNEEMKKQHIDNPEDVFLAEFWDGKVNFILQDGKIK", 1]
]}
